- Assay Explanation: Lethal dose in mice determined after intraperitoneal administration.
- Type: toxicity, organism-based
- Assay Setup: mouse, in vivo, ip
Quick reference: LD50 of the listed items.
Property: LD50 (mg/kg)

• CC(C(=O)c1ccc(CCc2ccccc2)cc1)n1ccnc1 (configuration not stated) = 115
• O=C(Cn1ccnc1)c1ccc(O)c(O)c1 = 1000
• O=C(Cn1ccnc1)c1ccc([N+](=O)[O-])cc1 = 360
• Cl.Nc1ccc(C(O)Cn2ccnc2)cc1 (configuration not stated) = 875
• Cl.OC(Cn1ccnc1)c1cccc(-c2ccccc2)c1 (configuration not stated) = 180
• O=C(Cn1ccnc1)c1cccc(-c2ccccc2)c1 = 210
• CC(C(O)c1ccc(-c2ccccc2)cc1)n1ccnc1.Cl (configuration not stated) = 655

###

- Assay Explanation: Lethal dose in mice determined after intraperitoneal administration.
- Assay type: toxicity, organism-based
- Assay Setup: mouse, in vivo, ip
Label scheme, based on LD50: group A: < 200 mg/kg; group B: ≥ 200 mg/kg and < 400 mg/kg; group C: ≥ 400 mg/kg

* CCC(C)c1ccc(C(=O)Cn2ccnc2)cc1 (stereo not drawn) | group A
* CC(C)(C(=O)c1ccc(CCc2ccccc2)cc1)n1ccnc1 | group A
* COc1ccc(C(=O)Cn2ccnc2)cc1 | group B
* Cl.O=[N+]([O-])c1ccc(C(O)Cn2ccnc2)cc1 (stereo not drawn) | group C
* O=C(Cn1ccnc1)c1ccccc1Cl | group B
* CC(Cn1ccnc1)C(=O)c1ccc(-c2ccccc2)cc1 (stereo not drawn) | group A
* Nc1ccc(C(=O)Cn2ccnc2)cc1 | group B
* O=C(Cn1ccnc1)c1ccccc1-c1ccccc1 | group A
* CCC1(c2ccccc2)C(=O)NC(=O)NC1=O.Cl [PHENOBARBITAL HYDROCHLORIDE] | group B
* O=C(Cn1ccnc1)c1ccc(C2CCCCC2)cc1 | group C
* CC(C)(C(O)c1ccc(CCc2ccccc2)cc1)n1ccnc1.Cl (stereo not drawn) | group B
* CC(C)(C)c1ccc(C(O)Cn2ccnc2)cc1.Cl (stereo not drawn) | group B
* Cl.OC(Cn1ccnc1)c1ccccc1-c1ccccc1 (stereo not drawn) | group A
* Cl.OC(Cn1ccnc1)c1ccc(C2CCCCC2)cc1 (stereo not drawn) | group C
* CC(=O)Nc1ccc(C(=O)Cn2ccnc2)cc1 | group C
* CC(C)(C(=O)c1ccc(-c2ccccc2)cc1)n1ccnc1 | group C
* CC(Cn1ccnc1)C(O)c1ccc(-c2ccccc2)cc1.Cl (stereo not drawn) | group B
* O=C(Cn1ccnc1)c1ccc(-c2ccccc2)cc1 | group C
* O=C(Cn1ccnc1)c1ccc(O)cc1 | group C
* O=C(Cn1ccnc1)c1ccc(Cl)cc1Cl | group C
* OC(Cn1ccnc1)c1ccc(Cl)cc1Cl (stereo not drawn) | group B
* CC(C)(C)c1ccc(C(=O)Cn2ccnc2)cc1 | group A
* Cl.OC(Cn1ccnc1)c1ccc(-c2ccccc2)cc1 (stereo not drawn) | group C
* OC(Cn1ccnc1)c1ccc(Cl)cc1 (stereo not drawn) | group B
* CS(=O)(=O)Nc1ccc(C(=O)Cn2ccnc2)cc1 | group C
* COc1ccc(C(O)Cn2ccnc2)cc1.Cl (stereo not drawn) | group B
* CCC(C)c1ccc(C(O)Cn2ccnc2)cc1.Cl (stereo not drawn) | group B
* O=C(Cn1ccnc1)c1ccc(Oc2ccccc2)cc1 | group A

###

- Tested on: Mus musculus
- Assay Explanation: Anticonvulsant activity was evaluated by the maximal electroshock test in mice, administered orally
- Type: functional
- Assay Setup: po
Quick reference: ED50 of the listed items.
Property: ED50 (mg/kg)

* CC(Cn1ccnc1)C(O)c1ccc(-c2ccccc2)cc1.Cl (configuration not stated) | 32.3
* O=C(Cn1ccnc1)c1cccc(-c2ccccc2)c1 | 21
* O=C(Cn1ccnc1)c1ccc(C2CCCCC2)cc1 | 89.9
* CCC1(c2ccccc2)C(=O)NC(=O)NC1=O.Cl [PHENOBARBITAL HYDROCHLORIDE] | 17.6
* CC(C(O)c1ccc(CCc2ccccc2)cc1)n1ccnc1.Cl (configuration not stated) | 36
